# ASSAY_SYSTEM: NAD-dependent protein deacetylase sirtuin-1 (Homo sapiens, UniProt Q96EB6, N346A)
# Sequence (Q96EB6 2-747 N346A limits assumed): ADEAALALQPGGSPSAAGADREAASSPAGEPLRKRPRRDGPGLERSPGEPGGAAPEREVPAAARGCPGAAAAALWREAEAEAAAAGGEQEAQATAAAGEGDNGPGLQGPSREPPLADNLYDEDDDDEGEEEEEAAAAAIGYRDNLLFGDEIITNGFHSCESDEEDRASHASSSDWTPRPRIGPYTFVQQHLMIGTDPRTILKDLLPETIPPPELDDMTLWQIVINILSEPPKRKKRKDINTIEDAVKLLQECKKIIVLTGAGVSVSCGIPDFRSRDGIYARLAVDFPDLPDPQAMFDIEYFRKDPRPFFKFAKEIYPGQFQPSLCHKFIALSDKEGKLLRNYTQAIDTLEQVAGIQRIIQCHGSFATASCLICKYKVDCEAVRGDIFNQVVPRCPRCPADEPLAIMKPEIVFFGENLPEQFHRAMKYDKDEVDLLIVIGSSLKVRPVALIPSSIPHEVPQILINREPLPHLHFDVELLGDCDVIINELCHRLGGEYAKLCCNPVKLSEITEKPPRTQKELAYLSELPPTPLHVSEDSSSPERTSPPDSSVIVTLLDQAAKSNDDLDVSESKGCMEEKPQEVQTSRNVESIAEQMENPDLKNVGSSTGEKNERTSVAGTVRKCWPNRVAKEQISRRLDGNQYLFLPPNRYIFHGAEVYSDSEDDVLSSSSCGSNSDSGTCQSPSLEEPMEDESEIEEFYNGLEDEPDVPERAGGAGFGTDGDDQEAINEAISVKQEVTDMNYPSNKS
# ASSAY_COMMENT: Inhibition of N-terminal hexa-His-tagged human SIRT1 N346A mutant (156 to 664 residues) expressed in Escherichia coli BL21 (DE3) assessed as dissociation equilibrium constant using Abz-GVLKacAYNO2GY-NH2 as substrate in presence of varying level of NAD+ by Lineweaver-burk plot analysis
ATTRIBUTE_MEASURED: pKi
Please note pKi is a logarithmic value: minus log10 of concentration in mol/L. Answer with that number alone.

stdin: Give its pKi value. Item: COc1cc(C=C2C(=O)OC(c3ccccc3)OC2=O)cc(Br)c1O (stereo unspecified)
stdout: 5.71

* * *

# ASSAY_SYSTEM: NAD-dependent protein deacetylase sirtuin-1 (Homo sapiens, UniProt Q96EB6)
# Sequence (Q96EB6 whole entry): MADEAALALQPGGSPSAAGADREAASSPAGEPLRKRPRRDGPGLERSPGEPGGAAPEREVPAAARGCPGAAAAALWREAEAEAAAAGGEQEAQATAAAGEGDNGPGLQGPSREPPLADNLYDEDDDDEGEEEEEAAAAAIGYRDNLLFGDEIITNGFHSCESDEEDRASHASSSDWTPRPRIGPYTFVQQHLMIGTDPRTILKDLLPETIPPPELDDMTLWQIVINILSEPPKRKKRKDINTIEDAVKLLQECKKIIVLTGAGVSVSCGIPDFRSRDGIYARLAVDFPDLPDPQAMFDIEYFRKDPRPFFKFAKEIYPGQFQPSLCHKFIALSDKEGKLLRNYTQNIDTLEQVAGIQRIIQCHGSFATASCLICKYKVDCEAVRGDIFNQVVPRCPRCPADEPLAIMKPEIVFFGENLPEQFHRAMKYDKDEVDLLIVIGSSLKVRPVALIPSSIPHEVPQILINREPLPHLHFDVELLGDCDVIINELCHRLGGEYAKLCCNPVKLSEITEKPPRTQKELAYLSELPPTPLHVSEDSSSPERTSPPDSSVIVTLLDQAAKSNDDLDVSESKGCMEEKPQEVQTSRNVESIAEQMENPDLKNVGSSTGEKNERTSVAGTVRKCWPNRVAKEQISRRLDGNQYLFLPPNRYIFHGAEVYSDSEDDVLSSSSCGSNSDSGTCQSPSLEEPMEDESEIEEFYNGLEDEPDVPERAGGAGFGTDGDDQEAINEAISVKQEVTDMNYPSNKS
# ASSAY_COMMENT: Inhibition of His-tagged SIRT1 (unknown origin) expressed in Escherichia coli codon plus (DE3) using acetylated p53 as substrate
ATTRIBUTE_MEASURED: pIC50
Please note pIC50 is a logarithmic value: minus log10 of concentration in mol/L. Answer with that number alone.

stdin: Give its pIC50 value. Item: CCC(Sc1nnc2c(n1)[nH]c1ccccc12)C(=O)N1c2ccccc2Sc2ccccc21 (stereo unspecified)
stdout: 7.00

* * *

Item-by-item account of pIC50
# ASSAY_SYSTEM: NAD-dependent protein deacetylase sirtuin-2 (Homo sapiens)
# Sequence (Q8IXJ6 whole entry, the tested form may be a part): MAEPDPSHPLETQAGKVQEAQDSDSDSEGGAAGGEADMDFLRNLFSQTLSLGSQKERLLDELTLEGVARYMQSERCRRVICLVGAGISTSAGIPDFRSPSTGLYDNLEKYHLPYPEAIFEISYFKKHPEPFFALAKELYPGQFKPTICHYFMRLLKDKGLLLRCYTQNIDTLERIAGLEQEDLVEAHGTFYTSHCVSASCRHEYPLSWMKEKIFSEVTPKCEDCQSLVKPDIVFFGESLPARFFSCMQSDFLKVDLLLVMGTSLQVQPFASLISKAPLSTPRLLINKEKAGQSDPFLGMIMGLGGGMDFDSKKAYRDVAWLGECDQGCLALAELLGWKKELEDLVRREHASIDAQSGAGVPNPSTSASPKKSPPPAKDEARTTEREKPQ
# ASSAY_COMMENT: Inhibition of GST-fusion tagged human SIRT2 (34 to 356 residues) expressed in Escherichia coli BL21 (DE3) using Abz-GVLKacAYNO2GY-NH2 peptide as substrate incubated for 30 mins in presence of NAD+ by fluorescence microplate reader assay
Please note pIC50 is a logarithmic value: minus log10 of concentration in mol/L. Answer with that number alone.

These solved cases illustrate the format of a correct answer.
O=C1OC(c2ccccc2)OC(=O)C1=Cc1cc(I)c(O)c(I)c1 (centres undefined)    4.28
O=C1OC(c2ccccc2)OC(=O)C1=Cc1cc(Cl)c(O)c(Cl)c1 (centres undefined)    4.25
COc1cc(C=C2C(=O)OC(c3ccccc3)OC2=O)cc(Br)c1O (centres undefined)    4.27

# evaluate next
stdin: Give its pIC50 value. Item: COc1cc(C=C2C(=O)OC(c3ccccc3)OC2=O)cc(I)c1O (centres undefined)
stdout: 4.31

* * *

# ASSAY_SYSTEM: NAD-dependent protein deacetylase sirtuin-1 (Homo sapiens, UniProt Q96EB6, F273L)
# Sequence (Q96EB6 2-747 F273L limits assumed): as the sequence (Q96EB6 2-747 N346A limits assumed) above, with F272L, A345N counted along it
# ASSAY_COMMENT: Inhibition of N-terminal hexa-His-tagged human SIRT1 F273L mutant (156 to 664 residues) expressed in Escherichia coli BL21 (DE3) assessed as dissociation equilibrium constant using Abz-GVLKacAYNO2GY-NH2 as substrate in presence of varying level of NAD+ by Lineweaver-burk plot analysis
ATTRIBUTE_MEASURED: pKi
Please note pKi is a logarithmic value: minus log10 of concentration in mol/L. Answer with that number alone.

stdin: Give its pKi value. Item: COc1cc(C=C2C(=O)OC(c3ccccc3)OC2=O)cc(Br)c1O (stereo unspecified)
stdout: 6.19

* * *

# ASSAY_COMMENT: Inhibition of N-terminal hexa-His-tagged human SIRT1 D348A mutant (156 to 664 residues) expressed in Escherichia coli BL21 (DE3) assessed as dissociation equilibrium constant using Abz-GVLKacAYNO2GY-NH2 as substrate in presence of varying level of NAD+ by Lineweaver-burk plot analysis
ATTRIBUTE_MEASURED: pKi
Please note pKi is a logarithmic value: minus log10 of concentration in mol/L. Answer with that number alone.

stdin: Give its pKi value. Item: COc1cc(C=C2C(=O)OC(c3ccccc3)OC2=O)cc(Br)c1O (stereo unspecified)
stdout: 5.15
